Let's look at some compounds and their measured pKi.
target: Nitric oxide synthase, inducible (Mus musculus); test: The compound was tested for competitive antagonist of Nitric oxide synthase; assay type: functional
Sequence (P29477 whole entry): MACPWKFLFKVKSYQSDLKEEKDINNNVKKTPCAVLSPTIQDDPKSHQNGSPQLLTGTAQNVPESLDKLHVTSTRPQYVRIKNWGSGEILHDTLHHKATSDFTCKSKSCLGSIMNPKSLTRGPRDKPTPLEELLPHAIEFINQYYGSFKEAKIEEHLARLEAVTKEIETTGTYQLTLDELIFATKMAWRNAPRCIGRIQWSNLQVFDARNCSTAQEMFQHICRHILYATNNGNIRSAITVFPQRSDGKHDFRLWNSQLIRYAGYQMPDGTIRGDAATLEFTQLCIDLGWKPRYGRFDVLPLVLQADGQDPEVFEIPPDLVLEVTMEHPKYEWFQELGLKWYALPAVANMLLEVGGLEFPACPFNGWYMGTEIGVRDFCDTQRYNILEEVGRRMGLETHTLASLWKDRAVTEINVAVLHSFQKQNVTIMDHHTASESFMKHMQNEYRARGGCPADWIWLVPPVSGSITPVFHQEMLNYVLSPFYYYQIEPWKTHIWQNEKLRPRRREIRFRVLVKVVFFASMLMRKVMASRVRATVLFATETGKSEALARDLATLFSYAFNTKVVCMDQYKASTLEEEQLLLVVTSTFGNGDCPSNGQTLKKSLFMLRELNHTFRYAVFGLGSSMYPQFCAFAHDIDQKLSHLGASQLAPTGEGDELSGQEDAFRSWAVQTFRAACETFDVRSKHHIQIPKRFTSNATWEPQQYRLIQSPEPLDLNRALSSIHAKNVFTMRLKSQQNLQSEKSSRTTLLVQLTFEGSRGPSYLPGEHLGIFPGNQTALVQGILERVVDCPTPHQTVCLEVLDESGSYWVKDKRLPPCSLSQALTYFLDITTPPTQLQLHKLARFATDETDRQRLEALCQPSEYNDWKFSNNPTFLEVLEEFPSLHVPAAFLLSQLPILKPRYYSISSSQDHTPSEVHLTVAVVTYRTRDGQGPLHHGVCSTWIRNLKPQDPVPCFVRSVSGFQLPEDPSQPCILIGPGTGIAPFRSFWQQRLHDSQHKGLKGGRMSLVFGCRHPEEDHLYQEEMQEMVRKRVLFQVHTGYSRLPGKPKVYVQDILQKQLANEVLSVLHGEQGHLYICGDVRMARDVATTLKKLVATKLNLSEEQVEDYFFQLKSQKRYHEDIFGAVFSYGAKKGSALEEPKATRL
API: returns pKi as number; meaning -log10 of concentration in mol/L.

Field: example entries. Status: answers known.
Summary: `CC(=NO)NCCCC[C@H](N)C(=O)O` , Nitric oxide synthase, inducible (Mus musculus), pKi = 4.39

Summary: `CC(=NO)NCCC[C@H](N)C(=O)O` , Nitric oxide synthase, inducible (Mus musculus), pKi = 4.42

Next:
Summary: CC(=N)NCCCC[C@H](N)C(=O)O [L-NIL] , Nitric oxide synthase, inducible (Mus musculus), pKi = 5.67

Reference source for all entries: ChEMBL document CHEMBL1132876
